Just for reference, patent US20240041042A1 is where these values come from.

system: Lolium rigidum (LOLRI); test: Pre-emergence herbicidal action against LOLRI; assay type: in vivo; details: dosage 320 g/ha
Readout Kind: Pre-emergence action against LOLRI in % (%)

>>> numeric_readout("O=C(O)COc1nn(-c2nc(F)ccc2F)c(-c2ccc(F)nc2)c1Br")
90
>>> numeric_readout("COC(=O)[C@@H](C)Oc1nn(-c2nc(F)ccc2F)c(-c2cncc(F)c2)c1C1CC1")
100
>>> numeric_readout("COC(=O)CCOC(=O)[C@@H](C)Oc1nn(-c2ccccn2)c(-c2ccc(Cl)nc2)c1Br")
100

###

test system: Avena fatua (AVEFA); experiment: Post-emergence herbicidal action against AVEFA; assay type: in vivo; settings: 320 g/ha, visual rating about 3 weeks after treatment
Let's look at some compounds and their measured Post-emergence action against AVEFA in %.
Readout Kind: Post-emergence action against AVEFA in %

>>> result("C[C@@H](Oc1nn(-c2ncccc2F)c(-c2ccc(F)nc2)c1I)C(=O)O")
"80%"
>>> result("COC(=O)[C@@H](C)Oc1nn(-c2ncccc2F)c(-c2cncc(F)c2)c1C1CC1")
"90%"
>>> result("COC(=O)[C@@H](C)Oc1nn(-c2ccc(F)cn2)c(-c2ccc(F)nc2)c1Br")
"90%"
>>> result("CCOC(=O)COc1nn(-c2ncccc2C)c(-c2cncc(F)c2)c1Cl")
"90%"
